- Measurement protocol: Apparent binding affinity for Alanine racemase from Pseudomonas aeruginosa
Task for the reader: assign each of the following compounds its reported pKi.
pKi here is simply -log10 of the concentration when that concentration is written in mol/L.

QUERY: Param item = NC(CCl)P(=O)(O)O (configuration not stated) [(1-Amino-2-chloro-ethyl)-phosphonic acid] ; retrieve measured pKi.
RESULT: 3.09

QUERY: Param item = NC(C(Cl)Cl)P(=O)(O)O (configuration not stated) ; retrieve measured pKi.
RESULT: 2.70
